- System: Plasmodium falciparum
- experimental.details: antimalarial activity in in vitro cultures of Plasmodium falciparum, inhibition of [3H]-hypoxanthine incorporation
- Assay type: cell-based
- test.settings: 1 μM compound; inhibition of tritium incorporation relative to comparison without substance; 48 h + 24 h incubation
quantity.name: % Inhibition at 1 μM

[[record]]
smiles_text = "Cc1ccc(CC(=O)Nc2ccc(NC(=O)COCc3ccccc3)cc2C(=O)c2ccccc2)cc1"
system_under_test = "Plasmodium falciparum"
test_value = "0%"

[[record]]
smiles_text = "Cc1ccc(CC(=O)Nc2ccc(NC(=O)CCCc3ccccc3)cc2C(=O)c2ccccc2)cc1"
system_under_test = "Plasmodium falciparum"
test_value = "0%"

[[record]]
smiles_text = "Cc1ccc(CC(=O)Nc2ccc(NC(=O)C=Cc3ccc([N+](=O)[O-])cc3)cc2C(=O)c2ccccc2)cc1"
system_under_test = "Plasmodium falciparum"
test_value = "0%"

[[record]]
smiles_text = "Cc1ccc(CC(=O)Nc2ccc(NC(=O)C3c4ccccc4-c4ccccc43)cc2C(=O)c2ccccc2)cc1"
system_under_test = "Plasmodium falciparum"
test_value = "0%"


----------
- System: Plasmodium falciparum
- experimental.details: antimalarial activity in in vitro cultures of Plasmodium falciparum, inhibition of [3H]-hypoxanthine incorporation
- Type: cell-based
- test.settings: Plasmodium falciparum; 10 μM compound; inhibition of tritium incorporation relative to comparison without substance; 48 h + 24 h incubation
quantity.name: inhibition at 10 µM (%)

[[record]]
smiles_text = "CCCCCCCCCCCCCCC(=O)NCCCC(=O)Nc1ccc(NC(=O)Cc2ccc(C)cc2)c(C(=O)c2ccccc2)c1"
quantity_name = "inhibition at 10 µM"
result_unit = "%"
test_value = 0

[[record]]
smiles_text = "CCCCCCCCCCCCCCCC(=O)NCCC(=O)Nc1ccc(NC(=O)Cc2ccccc2)c(C(=O)c2ccccc2)c1"
quantity_name = "inhibition at 10 µM"
result_unit = "%"
test_value = 0

[[record]]
smiles_text = "O=C(C=Cc1ccc(OCc2ccccc2)cc1)NCCC(=O)Nc1ccc(NC(=O)Cc2ccccc2)c(C(=O)c2ccccc2)c1"
quantity_name = "inhibition at 10 µM"
result_unit = "%"
test_value = 97

[[record]]
smiles_text = "Cc1ccc(CC(=O)Nc2ccc(NC(=O)CNC(=O)C=Cc3ccc(-c4ccccc4)cc3)cc2C(=O)c2ccccc2)cc1"
quantity_name = "inhibition at 10 µM"
result_unit = "%"
test_value = 67

[[record]]
smiles_text = "CCCCCCCCCCCCCCCCC(=O)NCC(=O)Nc1ccc(NC(=O)Cc2ccc(C)cc2)c(C(=O)c2ccccc2)c1"
quantity_name = "inhibition at 10 µM"
result_unit = "%"
test_value = 0

[[record]]
smiles_text = "CCCCCCCCCCCCCCCCCCCC(=O)Nc1ccc(NC(=O)Cc2ccc(C)cc2)c(C(=O)c2ccccc2)c1"
quantity_name = "inhibition at 10 µM"
result_unit = "%"
test_value = 0


----------
- Test system: Plasmodium falciparum
- experimental.details: antimalarial activity in in vitro cultures of Plasmodium falciparum, inhibition of [3H]-hypoxanthine incorporation
- Format: cell-based
- test.settings: 1 μM compound; inhibition of tritium incorporation relative to comparison without substance; 48 h + 24 h incubation
quantity.name: % Inhibition at 1 μM (%)

[[record]]
smiles_text = "Cc1ccc(CC(=O)Nc2ccc(NC(=O)c3cccc4ccccc34)cc2C(=O)c2ccccc2)cc1"
test_value = 0

[[record]]
smiles_text = "Cc1ccc(CC(=O)Nc2ccc(NC(=O)CCC3CCCCC3)cc2C(=O)c2ccccc2)cc1"
test_value = 9

[[record]]
smiles_text = "Cc1ccc(CC(=O)Nc2ccc(NC(=O)C=Cc3ccc(-c4ccccc4)cc3)cc2C(=O)c2ccccc2)cc1"
test_value = 82

[[record]]
smiles_text = "Cc1ccc(CC(=O)Nc2ccc(NC(=O)Cc3ccccc3)cc2C(=O)c2ccccc2)cc1"
test_value = 0


Cited source: patent US20030036532A1
